experiment: chemical genetic growth profiling, strain panel (AID 1159580);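 further: tested at 20 µM; growth read once vehicle control cultures reached saturation at 30 °C; 1 = growth at the plate median or of vehicle wells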
details: S. cerevisiae deletion strains, growth OD, locus YDR195W, strain ref2
Among all 5,500 compounds or so, about 2,000 (36%) were called active. Another 18% or so got no clear call; they are omitted. The list shows a part of the results.
Exam item: assign criterion met to entries whose normalized growth is below 1 and criterion not met to entries at or above 1. Note that a value of exactly 1 receives criterion not met.

molecule	group
CC(C)CCCC(C)N (configuration not stated)	criterion not met
CC(=O)c1c(O)cc(O)cc1O	criterion met
CC(C)C1CCC(C(=O)N[C@@H](Cc2ccccc2)C(=O)O)CC1 (some centres not stated)	criterion met

----------
experiment: chemical genetic growth profiling, strain panel (AID 1159580)
details: S. cerevisiae deletion strains, growth OD, locus YDL192W, strain arf1
Hit rate of the full screen: of about 5,500 compounds, about 2,000 (36%) were called active. Another 18% or so got no clear call; they are omitted. No stated cut-off is given here; in the data, active means normalized growth mostly below about 0.91 (no sharp cut-off); inconclusive means no clear call, values can overlap the other calls; inactive means mostly above about 0.92. Some of the results follow.
Outcome codes: y = active, n = inactive

molecule	group
CN1CCC[C@H]1c1cccnc1	n
COC(=O)C(O)[C@H]1C(C)(C)[C@@H](OC(C)=O)[C@@H]2CC3=C4CC(=O)O[C@@H](c5ccoc5)[C@]4(C)CCC3[C@@]1(C)C2=O (some centres not stated)	n
CC(=O)Oc1c(C)c(C)c2c(c1C)CCC(C)(CCCC(C)CCCC(C)CCCC(C)C)O2 (configuration not stated)	n
Oc1cccc2cccnc12	y
CC(C)c1cc2c(c(O)c1O)[C@@]1(C(=O)O)CCCC(C)(C)C1CC2 (some centres not stated)	y
CC(=O)CCCCn1c(=O)c2c(ncn2C)n(C)c1=O	n
Cn1c(=O)c2c(ncn2CCCl)n(C)c1=O	n
Cn1c(=O)[nH]c2ncn(C)c2c1=O	n
ClC1C(Cl)C(Cl)C(Cl)C(Cl)C1Cl (configuration not stated)	n
O=C(O)c1cccnc1C(=O)O	n
COc1cc(Cc2cnc(N)nc2N)cc(OC)c1OC	n
CNC(=O)N(C)c1nnc(C(C)(C)C)s1	n

----------
experiment: chemical genetic growth profiling, strain panel (AID 1159580)
details: S. cerevisiae deletion strains, growth OD, locus YGR252W, strain gcn5, hits give low values
In all, about 5,500 compounds went through this assay and about 2,000 (36%) were called active. Another 18% or so got no clear call; they are omitted. Some of the results follow.
// normalized growth lookup, one value per entry

molecule	normalized growth
CNC(=O)N(C)c1nnc(C(C)(C)C)s1	1.05
COc1cc(Cc2cnc(N)nc2N)cc(OC)c1OC	1.07
CC(=O)OC1CCC23CC1(C)CCC2C(C)(C)CC3OC(C)=O (centres undefined)	1.1
CNC(=O)Oc1cccc2c1OC(C)(C)C2	0.99
O=C1NS(=O)(=O)c2ccccc21	0.976
O=c1c(O)cccc2cc(O)c(O)c(O)c12	0.716
Cn1c(=O)[nH]c2ncn(C)c2c1=O	0.981
Cn1cnc2c1c(=O)[nH]c(=O)n2C	1.01
CC(=O)OCC1=C(C(=O)O)N2C(=O)[C@@H](NC(=O)CSc3ccncc3)[C@H]2SC1	1.02
COc1cc(O)ccc1C(C)=O	0.961
CCCCCC/C=C\CCCCCCCc1cccc(O)c1C(=O)O	1.04
CC(=O)Nc1c(I)cc(I)c(C(=O)O)c1I	0.986
O=c1c(O)c(-c2ccccc2)oc2ccc3occc3c12	0.593
CC(=O)OC1CCC2(O)CC1(C)CCC1C2CC1(C)C (centres undefined)	1.05
COc1ccc([C@@H](C)C(=O)c2ccc(O)cc2O)cc1	0.92
C[N+]1(C)CCCC(OC(=O)C(O)(c2ccccc2)c2ccccc2)C1 (centres undefined)	0.936
CC(=O)O[C@@H]1C2CC[C@@H]3C1(C[C@@H](O)[C@@]1(O)[C@@H](C[C@H](O)C1(C)C)[C@]3(C)O)C[C@@]2(C)O (some centres undefined)	1.08
O[C@H]1[C@H](O)[C@@H](O)C2OC[C@H]1O2	1
COP(=O)(NC(C)=O)SC (centres undefined)	0.976
Cn1c(=O)c2c(ncn2CCO)n(C)c1=O	0.912
O=c1c(O)c(-c2ccccc2)oc2cc(O)ccc12	0.701
Cn1c(=O)c2c(ncn2CCCl)n(C)c1=O	1.03
COc1ccc(CC(=O)c2ccc(O)cc2O)cc1	0.841
O=C(Nc1ccc([N+](=O)[O-])cc1Cl)c1cc(Cl)ccc1O	1.01
Cn1c(=O)c2c(ncn2C)n(C)c1=O	1.01
O=C(O)CC[N+](=O)[O-]	0.977
CN1CCC[C@H]1c1cccnc1	0.949
COc1cc(O)c2c(c1)C(=O)c1cc(C)cc(O)c1C2=O	1.06
Cn1c(=O)[nH]c2nc[nH]c2c1=O	1.01

----------
experiment: chemical genetic growth profiling, strain panel (AID 1159580)
details: S. cerevisiae deletion strains, growth OD, locus YNL307C, strain MCK1, hits give low values
The campaign covered roughly 5,500 compounds. About 2,000 (36%) were called active. Inconclusive results (about 18%) are left out. The list shows a part of the results.
Note to self: use yes only for normalized growth readings below 1; a reading exactly at 1 still gets no.

compound	group
O=C(CCc1ccc(O)cc1)c1c(O)cc(O)cc1O	no
CC(C)OC(=O)Nc1cccc(Cl)c1	yes
COc1ccc(CC(=O)c2ccc(O)cc2O)cc1	yes
CC(NC(C)(C)C)C(=O)c1cccc(Cl)c1 (configuration not stated)	no
COc1ccc([C@@H](C)C(=O)c2ccc(O)cc2O)cc1	yes
C[N+]12CCC(CC1)C(OC(=O)C(O)(c1ccccc1)c1ccccc1)C2 (configuration not stated)	yes

----------
experiment: chemical genetic growth profiling, strain panel (AID 1159580);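 further: tested at 20 µM; growth read once vehicle control cultures reached saturation at 30 °C; 1 = growth at the plate median or of vehicle wells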
details: S. cerevisiae deletion strains, growth OD, locus YDR297W, strain sur2
Hit rate of the full screen: of about 5,500 compounds, about 2,000 (36%) were called active. About 18% were inconclusive and are not listed. Cut-off read from the data, not from the text of the source: active = normalized growth mostly below about 0.91 (no sharp cut-off); inconclusive = no clear call, values can overlap the other calls; inactive = mostly above about 0.92. Some of the results follow.
Outcomes: active, inactive

compound	group
CC(C)c1cc2c(c(O)c1O)[C@@]1(C(=O)O)CCCC(C)(C)C1CC2 (some centres not stated)	inactive
CC(C)[C@@H]1CC[C@@H](C)CC1=O	inactive
O=c1c(O)c(-c2ccccc2)oc2cc(O)ccc12	active
O=C1c2cccc(O)c2C(=O)c2c(O)cccc21	inactive
C=C(C)C1Cc2c(ccc3c(=O)c4c(oc23)COc2cc(OC)c(OC)cc2-4)O1 (configuration not stated)	inactive
O=c1c(O)c(-c2ccc(O)cc2)oc2ccccc12	active
Cc1cc2nc3c(=O)[nH]c(=O)nc-3n(CC(O)C(O)C(O)CO)c2cc1C (configuration not stated)	inactive
CC(=O)NS(=O)(=O)c1ccc(N)cc1	inactive
CCCCCCCCCCCCCCCC(=O)OC[C@H](NC(=O)C(Cl)Cl)[C@H](O)c1ccc([N+](=O)[O-])cc1	inactive
O=C1C=CC(=O)c2c(O)cccc21	inactive
COc1ccc(NS(=O)(=O)c2ccc(N)cc2)nn1	inactive
CC(NC(C)(C)C)C(=O)c1cccc(Cl)c1 (configuration not stated)	inactive

----------
experiment: chemical genetic growth profiling, strain panel (AID 1159580);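 further: tested at 20 µM; growth read once vehicle control cultures reached saturation at 30 °C; 1 = growth at the plate median or of vehicle wells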
details: S. cerevisiae deletion strains, growth OD, locus YDL035C, strain GPR1, hits give low values
The campaign covered roughly 5,500 compounds. About 2,000 (36%) were called active. About 18% were inconclusive and are not listed. Some of the results follow.

molecule	normalized growth
Cn1cnc2c1c(=O)[nH]c(=O)n2C	1.01
CON	0.988
C[C@]12[C@H](O)CC3C(CC[C@@H]4C[C@@H](O)CC[C@]34C)[C@@]1(O)CC[C@@H]2C1=CC(=O)OC1 (some centres not stated)	1.07
Cn1c(=O)c2c(ncn2C)n(C)c1=O	1.02
O=C(O)c1cccnc1C(=O)O	1.03
CC(=O)CCCCn1c(=O)c2c(ncn2C)n(C)c1=O	1.01
Cn1c(=O)c2c(ncn2CCO)n(C)c1=O	0.997
COC(=O)C(O)[C@H]1C(C)(C)[C@@H](OC(C)=O)[C@@H]2CC3=C4CC(=O)O[C@@H](c5ccoc5)[C@]4(C)CCC3[C@@]1(C)C2=O (some centres not stated)	0.994
Cn1c(=O)[nH]c2nc[nH]c2c1=O	1.01
CN(C)CCC[C@@]1(c2ccc(F)cc2)OCc2cc(C#N)ccc21	1.02
C=C(C)C1Cc2c(ccc(C(=O)O)c2O)O1 (configuration not stated)	1.03
Cn1c(=O)c2c(ncn2CCCl)n(C)c1=O	1

----------
experiment: chemical genetic growth profiling, strain panel (AID 1159580);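 further: tested at 20 µM; growth read once vehicle control cultures reached saturation at 30 °C; 1 = growth at the plate median or of vehicle wells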
details: S. cerevisiae deletion strains, growth OD, locus YHR013C, strain ard1, hits give low values
About 2,000 (36%) of roughly 5,500 compounds were called active. Roughly 18% stayed inconclusive and do not appear here. This is one part of the list.
Output label 1 for records whose normalized growth is lower than 0.9, label 0 for records at or above 0.9.

compound	group
NC(=NCCCCCCN=C(N)N=C(N)Nc1ccc(Cl)cc1)N=C(N)Nc1ccc(Cl)cc1	label 1
O=C1NS(=O)(=O)c2ccccc21	label 0
O=C1C=CC(=O)c2c(O)c(Cl)c(Cl)c(O)c21	label 1
O=C1c2ccccc2C(=O)c2ccccc21	label 0
CC(C)N1C(=O)c2ccccc2NS1(=O)=O	label 0
O=C(c1ccccc1)c1ccc2n1CCC2C(=O)O (stereo not drawn)	label 0
CC(NC(C)(C)C)C(=O)c1cccc(Cl)c1 (stereo not drawn)	label 0
O=C1C=C(O)c2ccccc2C1=O	label 0
O=c1c(O)c(-c2ccccc2)oc2cc(O)ccc12	label 1
O=c1c(O)c(-c2ccccc2)oc2ccccc12	label 1
CC1=C(C(=O)O)N2C(=O)[C@@H](NC(=O)[C@@H](N)c3ccc(O)cc3)[C@H]2SC1	label 0
CC(=CC1CCC(C)C2CCC(C)=C12)C(=O)O (stereo not drawn)	label 0
